# study target: T1, 14-3-3γ-R57C-nLuc (human, UniProt P61981 2-247, R57C)
# T1 sequence: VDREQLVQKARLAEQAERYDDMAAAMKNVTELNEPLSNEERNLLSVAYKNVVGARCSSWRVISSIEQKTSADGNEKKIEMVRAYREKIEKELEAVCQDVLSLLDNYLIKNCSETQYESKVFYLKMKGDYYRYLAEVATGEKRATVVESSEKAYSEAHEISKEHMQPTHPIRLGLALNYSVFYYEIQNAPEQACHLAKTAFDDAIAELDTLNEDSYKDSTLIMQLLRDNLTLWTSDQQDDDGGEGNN
# assay details: degarelix 1 uM; apparent, Bmax set to wild-type
pKd: −log10 of the molar value. Primed or numbered codes have the meaning given here. Where no end group is shown, it is not given here. [ ]: non-standard residue; d: D form. FITC′ = fluorescein isothiocyanate label at the N-terminus; pS = N[C@@H](COP(=O)(O)O)C(=O)O
measure: pKd

(A) {FITC′}-QRHSN[pS]LGPIFDGSGGGSGIKARAS[pS]SPVILVGTHLD (leucine-rich repeat kinase 2 (LRRK2), human; also called FITC-LRRK2; source: synthetic peptide (AbClonal)) [FITC-ppLRRK2]
(B) {FITC′}-MPTPDATTPQAKGFRRAV[pS]ELDAKQAEAIMSPRFIGRRQSLIE (also called phosphopeptide derived from tyrosine hydroxylase (TH); source: synthetic peptide (AbClonal)) [FITC-pTH]
Exercise: Of the two listed items, which has the higher pKd? First: A Second: B Field: selected label. Fill in the label of the entry you choose.
Key: A
(A: 7.60, B: 4.65)
